experiment.description: binders from COS7 lysate, DM2A8 probe, primary screen, torsin A project, cell lysate, small-molecule microarray, fluorescence 635/667 (AID 1065)
measurement.conditions: higher = more signal, COS7 lysate expressing mutant human TOR1A
readout.kind: composite z-score
Response field accepts a number only; no unit should be typed.

Observe how each entry below is paired with its result.
[N-]=[N+]=Nc1ccccc1[C@@H]1OC(c2ccc(OCCCO)cc2)=N[C@]1(CCS(=O)(=O)c1ccccc1)C(=O)N1CCCCC1
1.25
C=C(COC)C(=O)CC[C@H](OC(=O)c1cccnc1)c1ccccc1OCCO
0.903
O=C1C2C=CC(C(O)CCc3ccccc3)N(Nc3ccccc3)C2C(=O)N1c1ccccc1 (stereo unspecified)
1.83
Cc1ccc(N2C(=O)c3ccccc3[C@](C)(C(=O)NCCN3CCOCC3)[C@@H]2c2ccc(CO)cc2)nc1
-0.653
COCCOC(=O)N1C(=O)[C@@]2(c3cc(C#CCCO)ccc31)[C@H](c1ccc(O)cc1)N1[C@H](c3ccccc3)[C@H](c3ccccc3)OC(=O)[C@H]1[C@@H]2C(=O)N1CCCCCCC1
1.07

Query: Item under review: C=C(C(=O)CC[C@@H](OC(C)=O)c1ccc(OCCO)cc1)C(C)C . Reported composite z-score?
Result: 0.366

Query: Item under review: Cc1cccc(/C=C/C=O)c1 . Reported composite z-score?
Result: -0.582

Query: Item under review: CCCC[C@@H]1C[C@H]1[C@@H](NC(=O)c1ccco1)c1ccccc1 . Reported composite z-score?
Result: -0.52

###

Tested on: Inhibin beta A chain (activin A)
experiment.description: small molecules binding activin A – biochemical, small-molecule microarray, 635 nm fluorescence scan, primary screen (AID 1107);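 further: mouse activin A protein probed at 4.33 µg/mL on printed slides; score merges bound-protein fluorescence near 667 nm with spot signal-to-noise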
measurement.conditions: INHBA, higher = more signal
readout.kind: composite z-score

Observe how each entry below is paired with its result.
O=C1[C@H]2C=C(Br)[C@H](C[C@@H]2OCCOCCO)[C@@]12CO2
1.02
C=CCNC(=O)[C@H]1[C@@H]2C(=O)O[C@@H](c3ccccc3)[C@@H](c3ccccc3)N2[C@@H](c2ccc(O)cc2)[C@]12C(=O)Nc1ccc(C#Cc3ccc(OC)cc3)cc12
-0.13
O=C(NCc1ccccc1)[C@@H]1c2ccccc2C(=O)N(Cc2cc(F)cc(C(F)(F)F)c2)[C@H]1c1ccc(CO)cc1
0.517
C=CC[C@@]1(C(N)=O)N=C(c2ccc(OCCCO)cc2)O[C@@H]1c1ccccc1N=[N+]=[N-]
1.38

Query: Item under review: O=C1C2C=CC(C(O)C3CC=CCC3)N(n3cnnc3)C2C(=O)N1Cc1ccccc1 (configuration not stated) . Reported composite z-score?
Result: 0.672

Query: Item under review: COC(=O)c1nc2oc1CC[C@@H](CO)NC(=O)N(C)Cc1cn(nn1)C[C@H](Cc1ccccc1)NC2=O . Reported composite z-score?
Result: 0.697

Query: Item under review: COc1ccc(C(=O)Nc2cccc(CN3C(=O)[C@@]4(O[C@@H](CCn5cc([C@H](O)c6ccccc6)nn5)[C@H]([Si](C)(C)c5ccc(OC)cc5)[C@H]4C)c4ccccc43)c2)cc1 . Reported composite z-score?
Result: 1.16

###

experiment.description: probe aCHRDL2 binding to arrayed compounds – biochemical, biotinylated probe, 635/667 nm fluorescence, primary screen (AID 1100)
measurement.conditions: small-molecule microarray, higher = more signal
composite z-score by entry:
Response field accepts a number only; no unit should be typed.

[N-]=[N+]=Nc1ccccc1C[C@]1(C(=O)N2CCCCC2)N=C(c2ccc(OCCCO)cc2)O[C@H]1c1ccccc1N=[N+]=[N-]
1.18

Query: Item under review: CCCC[C@@H]1C[C@H]1[C@@H](NC(=O)c1ccccc1)c1ccc(-c2ccccc2)cc1 . Reported composite z-score?
Result: 0.754

Query: Item under review: COc1ccc(C(=O)Nc2cccc(CN3C(=O)[C@@]4(O[C@@H](CCn5cc([C@H](O)c6ccccc6)nn5)[C@H]([Si](C)(C)c5ccc(OC)cc5)[C@H]4C)c4ccccc43)c2)cc1 . Reported composite z-score?
Result: 0.634

Query: Item under review: Cc1ccc(S[C@]2(C(=O)NCc3ccccc3)CC(=O)N(Cc3cc(C(F)(F)F)cc(C(F)(F)F)c3)[C@@H]2c2ccc(CO)cc2)cc1 . Reported composite z-score?
Result: -0.711

Query: Item under review: COCCCNC(=O)[C@]1(Cc2ccccc2N=[N+]=[N-])N=C(c2ccc(OCCCO)cc2)O[C@@H]1c1ccccc1CN=[N+]=[N-] . Reported composite z-score?
Result: 1.01

Query: Item under review: Oc1ccc2cc[n+](Cc3cccc(OC(F)(F)F)c3)cc2c1 . Reported composite z-score?
Result: -0.576

Query: Item under review: CC[C@@H]1C=C(C(=O)O)[C@H](c2ccc(C(C)C)cc2)N1S(=O)(=O)c1ccc(C)cc1 . Reported composite z-score?
Result: 0.86

Attribution: PubChem BioAssay
